For reference, IC50 measured on Pim3 kinase (Homo sapiens (Human), UniProt Q86V86):
measurement-name: IC50 (nM)

| compound | reported-value |
| --- | --- |
| CC[C@@H]1C[C@H](N)CN(c2ccncc2NC(=O)c2csc(-c3c(F)cccc3F)n2)C1 [Example 25] | 3 |
| C[C@@H]1C[C@H](N)C[C@H](c2ccncc2NC(=O)c2csc(-c3c(F)ccc(F)c3F)n2)C1 (stereo in doubt) [Example 55] | 5 |
| C[C@@H]1C[C@H](N)C[C@H](c2ccncc2NC(=O)c2csc(-c3c(F)cc(O)cc3F)n2)C1 (stereo in doubt) [Example 57] | 2 |
| C[C@H]1C[C@@H](c2ccncc2NC(=O)c2csc(C3CCCCC3)n2)C[C@@H](N)[C@@H]1O [Example 42] | 215 |
| NC1CC(CO)CN(c2ccncc2NC(=O)c2csc(-c3c(F)cccc3F)n2)C1 (stereo not drawn) [Example 13] | 24 |
| CC1CC(N)CN(c2ccncc2NC(=O)c2csc(C3CCCCC3)n2)C1 (stereo not drawn) [Example 20] | 16 |
| CO[C@@H]1C[C@H](N)CN(c2ccncc2NC(=O)c2csc(-c3c(F)cccc3F)n2)C1 [Example 8] | 35 |
| N[C@@H]1CN(c2ccncc2NC(=O)c2csc(-c3c(F)cccc3F)n2)CC[C@H]1F [Example 3] | 5 |
| C[C@H]1CN(c2ccncc2NC(=O)c2csc(-c3c(F)cccc3F)n2)C[C@@H](N)[C@@H]1O [Example 36] | 3 |
| C[C@@H]1C[C@H](N)C[C@H](c2ccncc2NC(=O)c2csc(-c3c(F)ccc(Cl)c3F)n2)C1 (stereo in doubt) [Example 56] | 3 |
| COC1CCN(c2ccncc2NC(=O)c2csc(-c3c(F)cccc3F)n2)CC1N (stereo not drawn) [Example 7] | 18 |
| C[C@@H]1C[C@H](N)C[C@H](c2ccncc2NC(=O)c2csc(C3CCCCC3)n2)C1 [Example 40] | 109 |
| CCO[C@@H]1C[C@H](N)CN(c2ccncc2NC(=O)c2csc(-c3c(F)cccc3F)n2)C1 [Example 23] | 86 |
| CC(C)NC(=O)c1ccc(F)c(-c2nc(C(=O)Nc3cnccc3N3CCC[C@H](N)C3)cs2)c1 [Example 50] | 8.3 |
| Nc1sc(-c2c(F)cccc2F)nc1C(=O)Nc1cnccc1N1CCC(F)CC1 [Example 30] | 3 |

###

pIC50: −log10 of the molar value.
Assay read-out pIC50; system under study: Pim2 kinase (Homo sapiens (Human), UniProt Q9P1W9).
Sequence (Q9P1W9 whole entry): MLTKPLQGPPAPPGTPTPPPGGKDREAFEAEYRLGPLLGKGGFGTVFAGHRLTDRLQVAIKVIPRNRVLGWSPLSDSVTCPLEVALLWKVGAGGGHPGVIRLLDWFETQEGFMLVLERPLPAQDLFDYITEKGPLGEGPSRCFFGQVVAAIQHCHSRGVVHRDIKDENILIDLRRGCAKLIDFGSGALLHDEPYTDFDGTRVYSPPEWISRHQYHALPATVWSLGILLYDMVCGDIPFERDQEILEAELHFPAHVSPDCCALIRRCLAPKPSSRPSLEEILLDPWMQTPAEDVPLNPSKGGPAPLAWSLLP
measurement-name: pIC50

| compound | reported-value |
| --- | --- |
| N[C@H]1C[C@@H](O)CN(c2ccncc2NC(=O)c2csc(-c3c(F)cccc3F)n2)C1 | 7.11 |
| C[C@H]1CN(c2ccncc2NC(=O)c2csc(-c3c(F)cccc3F)n2)C[C@@H](N)[C@@H]1O | 8.52 |
| C[C@H]1C[C@@H](c2ccncc2NC(=O)c2csc(-c3c(F)cccc3F)n2)C[C@@H](N)[C@H]1F (racemic) | 7.33 |
| NC1CC(CF)CN(c2ccncc2NC(=O)c2csc(-c3c(F)cccc3F)n2)C1 (centres unmarked) | 8.52 |
| CC(C)NC(=O)c1ccc(F)c(-c2nc(C(=O)Nc3cnccc3N3CCC[C@H](N)C3)cs2)c1 | 7.08 |
| N[C@H]1CCCN(c2ccncc2NC(=O)c2csc(-c3ccccc3)n2)C1 | 7.75 |
| CO[C@@H]1C[C@H](N)CN(c2ccncc2NC(=O)c2csc(-c3c(F)cccc3F)n2)C1 | 7.34 |
| CC1CCN(c2ccncc2NC(=O)c2csc(-c3c(F)cccc3F)n2)CC1N (centres unmarked) | 8.10 |
| CC1CC(N)CN(c2ccncc2NC(=O)c2csc(C3CCCCC3)n2)C1 (centres unmarked) | 7.74 |
| C[C@@H]1C[C@H](N)C[C@H](c2ccncc2NC(=O)c2csc(-c3c(F)ccc(Cl)c3F)n2)C1 (stereo in doubt) | 7.92 |
| NC1CN(c2ccncc2NC(=O)c2csc(-c3c(F)cccc3F)n2)CCC1Cl (centres unmarked) | 7.27 |

Data origin: patent US8829193B2
